# credit: the kinase profiling compilation of Christmann-Franck et al. (2016)

- Target or test system: TEC (human) (UniProt P42680)
- Sequence (P42680 whole entry, looked up): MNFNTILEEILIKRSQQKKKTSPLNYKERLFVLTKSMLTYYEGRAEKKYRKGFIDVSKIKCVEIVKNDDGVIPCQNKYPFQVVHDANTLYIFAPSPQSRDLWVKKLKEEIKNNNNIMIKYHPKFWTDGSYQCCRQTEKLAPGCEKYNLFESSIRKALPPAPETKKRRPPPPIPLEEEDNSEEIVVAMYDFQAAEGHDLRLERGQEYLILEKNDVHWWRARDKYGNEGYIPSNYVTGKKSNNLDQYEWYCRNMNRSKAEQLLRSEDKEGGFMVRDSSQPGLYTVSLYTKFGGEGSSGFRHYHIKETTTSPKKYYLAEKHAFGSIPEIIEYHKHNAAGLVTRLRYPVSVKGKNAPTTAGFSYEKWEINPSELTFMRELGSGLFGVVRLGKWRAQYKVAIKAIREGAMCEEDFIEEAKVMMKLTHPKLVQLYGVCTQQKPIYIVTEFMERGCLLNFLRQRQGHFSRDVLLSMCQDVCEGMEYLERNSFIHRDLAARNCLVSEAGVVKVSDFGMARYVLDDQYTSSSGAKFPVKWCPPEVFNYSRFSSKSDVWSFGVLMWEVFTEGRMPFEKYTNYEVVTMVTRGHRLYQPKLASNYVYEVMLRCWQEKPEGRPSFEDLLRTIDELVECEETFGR
- Assay protocol: KINOMEscan competition binding
- Details: compound 10.0 µM
Please respond with reported kinase still bound, per cent of control for every item in the list.
Give just the number in %; leave the unit off.

In: Would you please give the reported kinase still bound, per cent of control of COc1cc(N2CCC(C(N)=O)CC2)ccc1Nc1nc(N)c(Cl)c(Nc2ccccc2S(=O)(=O)C(C)C)n1 with TEC (human) (UniProt P42680)?
Out: 100

In: Would you please give the reported kinase still bound, per cent of control of N#Cc1cc(-c2ccnc(Nc3ccc(-n4cnc(-c5cccnc5)n4)cc3)n2)cc(N2CCOCC2)c1 with TEC (human) (UniProt P42680)?
Out: 93

In: Would you please give the reported kinase still bound, per cent of control of CC1=C(C(=O)Nc2cc3cn[nH]c3cc2F)C(c2ccc(C(F)(F)F)cc2)CC(=O)N1 (stereo not drawn) with TEC (human) (UniProt P42680)?
Out: 19

In: Would you please give the reported kinase still bound, per cent of control of CNC(=O)Nc1ccc(-c2nc(N3CC4CCC(C3)O4)c3cnn(C4CCC5(CC4)OCCO5)c3n2)cc1 with TEC (human) (UniProt P42680)?
Out: 84

In: Would you please give the reported kinase still bound, per cent of control of COc1ccc(N(C(=O)Oc2cc(C(=O)Nc3cccc(C(F)(F)F)c3)ccc2C)c2ccnc(Nc3ccc(N4CCN(C)CC4)cc3)n2)c(OC)c1 with TEC (human) (UniProt P42680)?
Out: 0.2

In: Would you please give the reported kinase still bound, per cent of control of Cc1cn(-c2cc(C(=O)Nc3ccc(C)c(NC(=O)c4ccno4)c3)cc(C(F)(F)F)c2)cn1 with TEC (human) (UniProt P42680)?
Out: 100

In: Would you please give the reported kinase still bound, per cent of control of COc1cc2c(Nc3ccc(NC(=O)c4ccccc4)cc3)ncnc2cc1OCCCN1CCOCC1 with TEC (human) (UniProt P42680)?
Out: 76

In: Would you please give the reported kinase still bound, per cent of control of COc1cc2ncnc(Nc3cccc(Cl)c3)c2cc1OC with TEC (human) (UniProt P42680)?
Out: 100
